- System: A498 renal
- method description: NCI-60 one-dose screen, 48 h (100 = growth as untreated, 0 = no growth, -100 = all killed)
- measurement conditions: 10 µM unless noted
This is part of a sample that, as a whole, favours compounds with a hit. Of some 83,000 tested, about 20% had one in any assay.
Record t whenever growth is at 90% or higher; record f when lower.

compound string | cat
O=c1[nH][nH]c(-c2ccc(F)cc2)c1-c1nc2ccccc2s1 | f
CCOC(=O)c1cnc2c(-c3ccc(Cl)c(Cl)c3)cnn2c1 | f
Cc1c(C(=O)/C=C/c2ccc(Cl)cc2)nnn1-c1ccc2oc(=O)ccc2c1 | t
O=C1[C@@H]2Cc3c([nH]c4ccccc34)[C@H](c3ccc(Br)cc3)N2C(=O)CN1C1CCN(Cc2c(Cl)cccc2Cl)CC1 | t
CCCCCc1ccc(S(=O)(=O)Nc2cc(-c3csc(N)n3)ccc2OC)cc1 | t
CN1c2ccccc2Sc2cc(/C=N/Nc3ccnc4cc(Cl)ccc34)ccc21 | t
CCCCc1nc2c(N)nc3ccccc3c2n1Cc1ccc(OC)cc1 | f
O=[N+]([O-])c1ccc(NC(=S)NNC(=S)Nc2ccc(Br)cc2)cc1 | f

* * *

- Tested on: MCF7 breast
- method description: NCI-60 one-dose screen, 48 h (100 = growth as untreated, 0 = no growth, -100 = all killed)
- measurement conditions: 10 µM unless noted
This is part of a sample that, as a whole, favours compounds with a hit. Of some 83,000 tested, about 20% had one in any assay.

compound | growth / %
Clc1ccc2[nH]cc(-c3nn4cc(-c5ccncc5)nc4s3)c2c1 | 24.2
CCC(=C(c1ccc(OCCN2CCCCCC2)cc1)c1ccc(OCCN2CCCCCC2)cc1)c1ccc(Cl)cc1 | -63.7
CC1=C(C)C(=O)C(Nc2cccc(C(=O)OC(C)(C)C)c2)=CC1=O | 46
CC(C)(C)Nc1nc2c(OCCc3ccccc3)cccn2c1-c1cccc(Oc2ccccc2)c1 | 4.96
CN1CC[C@@H]2[C@@]3(C)CC[C@H](O)C(C)(C)[C@@H]3CC[C@@]2(C)[C@]2(C)CC[C@@]3(CO)CCC(C)(C)C[C@@H]3C12 (some centres undefined) | 77
CC(=O)/C(N=Nc1ccc2oc(=O)ccc2c1)=C(\C)O | 25.8
Brc1cc(-c2cc(-c3ccc4c(c3)OC=CO4)[nH]n2)cs1 | 25.1
CCOC(=O)c1ccc(NC2=C(Cl)C(=O)c3nc(C)ccc3C2=O)cc1 | -14.5
CC(C)(C)OC(=O)NCc1ccc(CNc2c([N+](=O)[O-])cnc3ccccc23)cc1 | 40.6

* * *

- System: UACC-257 melanoma
- method description: NCI-60 one-dose screen, 48 h
- measurement conditions: 10 µM unless noted
Compounds without any hit were thinned out: in the full panel of roughly 83,000, 20% have a hit. Activity calls are given as the source filed them. Rule for the calls: active = growth percent below 10; inactive = the rest.
Possible outcomes: 1 = active, -1 = inactive

compound | cat
N#Cc1c(-c2cccs2)cc(-c2cnccn2)nc1SCC(=O)N/N=C/c1ccccc1 | -1
Brc1cccc(-c2cc(-c3cnc4c(c3)OCCO4)n[nH]2)c1 | -1
CCCCN1C(=O)/C(=c2\sc3n(c2=O)C2C(NN=3)N(CC)C(=O)N2CC)c2cccc(C)c21 (centres undefined) | -1
Oc1[nH]c2ccc(Cl)cc2c1N=Nc1nc(N=Nc2c(O)[nH]c3ccc(Cl)cc23)nc(N2CCOCC2)n1 | -1
COc1ccc(C(=O)c2c(N)c(C#N)cn2-c2ccc(Cl)cc2Cl)cc1 | -1
CN1CCN(c2ccc(Nc3nc(NCCNC(=O)c4ccccc4)c4sccc4n3)cc2)CC1 | -1
NS(=O)(=O)c1ccc(Nc2nc(Nc3ccccc3)nc(N3N=C(c4ccc(Cl)cc4)CC3c3ccc(Cl)cc3)n2)cc1 (centres undefined) | -1
NC(=O)c1c(NC(=O)c2ccc(C(F)(F)F)cc2)sc2c1CCC(=O)C2 | 1
C#CCOc1ccc(/C=N/Nc2nc(-c3ccc(OC)cc3)cs2)cc1 | -1

* * *

- Test system: EKVX NSCLC
- method description: NCI-60 one-dose screen, 48 h
- measurement conditions: 10 µM unless noted
About 83,000 compounds went through this panel and 20% of them were active in at least one assay; those are over-represented in the sample as a whole. Active and inactive are the calls of the source. Rule for the calls: active = growth percent below 10; inactive = the rest.
Possible outcomes: True (active), False (inactive)

compound | cat
COC(=O)c1ccc(NC2=C(Cl)C(=O)c3nc(C)ccc3C2=O)cc1 | False
CC1CC(=O)C2=C(C1)Nc1ccc(Br)cc1CC2c1c[nH]c2ccc(Br)cc12 (stereo not drawn) | False
CN1CCN(c2ccc(Nc3nc(NCCNS(=O)(=O)c4ccccc4)c4sccc4n3)cc2)CC1 | False
N#C/C(=C\c1ccc(-c2ccc(Cl)c(Cl)c2)o1)C(=O)Nc1ncc(Cc2ccc(Cl)cc2)s1 | False
COc1ccc([C@@H]2C(=O)N(c3cc(OC)c(OC)c(OC)c3)[C@H]2c2ccc(OC)c(O)c2)cc1 | False
Cc1csc(/N=C(N)/N=C(\N)c2cccc(C#N)c2)n1 | False
COc1ccccc1Cn1cc(C#N)c(N)c1C(=O)c1ccc(Br)cc1 | False
Cn1cc(-c2nn3cc(-c4ccncc4)nc3s2)c2cc(F)ccc21 | False
CN1CCN(Cc2ccc(NC(=O)c3cncc(C#Cc4cnc5ccc(NCCO)nn45)c3)cc2C(F)(F)F)CC1 | True
CCN1CCN(c2ccc(NC(=O)Nc3ccc4c(ccn4-c4ccnc(C(=O)NC)c4)c3)cc2C(F)(F)F)CC1 | False
FC(F)(F)c1cc(Br)cc(-c2cc(-c3ccc4c(c3)OCCO4)[nH]n2)c1 | False
CCCCc1nc2c(N)nc3ccccc3c2n1Cc1cccc(CN)c1 | False
CCCNNC(=O)c1ccc(-c2ccc(NC(=O)CCCCCCC(=O)N[C@H](C(=O)N3C[C@H](O)C[C@H]3C(=O)N[C@@H](C)c3ccc(-c4scnc4C)cc3)C(C)(C)C)cc2)cc1 | False
Cc1nc(N)sc1-c1csc(Nc2ccc(C(F)(F)F)cc2)n1 | False
COc1ccc2c(c1)C=CC1(O2)Oc2ccc(OC)cc2C=C1C (stereo not drawn) | False
CC1(C)C=Cc2cc(/C(N)=N/C(N)=N/c3nc4ccccc4s3)ccc2O1 | False
Brc1ccc(-c2cc(-c3ccc4c(c3)OC=CO4)n[nH]2)s1 | False
COc1ccc(/C(=N\N=C(N)N)c2ccc(Cl)cc2)cc1OC | False
CCc1cc(OC(=O)N2CCC(N3CCCCC3)CC2)ccc1Nc1cc(-c2ccc(-n3cccn3)cc2)[nH]n1 | False
C#C[C@]1(O)CC[C@H]2[C@@H]3CC=C4c5sc(Nc6ccc(C)cn6)nc5CC[C@]4(C)[C@H]3CC[C@@]21C | True
C=C(C)[C@@H]1CC[C@]2(C(=O)O)CC[C@]3(C)[C@H](CC[C@@H]4[C@@]5(C)C/C(=C/c6ccccn6)C(=O)C(C)(C)[C@@H]5CC[C@]43C)[C@@H]12 | False
O=C1c2ccccc2C23C(=C(c4cncnc4)c4ccccc42)CCCN13 (stereo not drawn) | False
CSc1ccc(/C(=N/N=C(N)N)c2ccc(F)cc2)cc1 | False
CC1(C)CC[C@]2(C(=O)O)CC[C@]3(C)C(=CC[C@@H]4[C@@]5(C)CC[C@H](NOCCCN)C(C)(C)[C@@H]5CC[C@]43C)[C@@H]2C1 | False
CC(=O)Nc1ccccc1-c1nc2ccccc2s1 | False
Cc1[nH]c(C(=O)Nc2ccccc2OCc2cccc(C(=O)NC3CCCNC3)c2)c(Cl)c1Cl (stereo not drawn) | True
Nc1cc(C(=O)N/N=C\c2ccc(OC(F)F)c(OC3CCCC3)c2)nn1CC(O)c1ccccc1 (stereo not drawn) | False
CC/C(=C(/c1ccc(Cl)cc1)c1ccc(OCCN)cc1)c1ccccc1 | False
CC1=C(C)C(=O)C(Nc2cccc(C(=O)OC(C)(C)C)c2)=CC1=O | False
Nn1c(=O)n(-c2cccc(C(F)(F)F)c2)c(=O)c2cc(-c3ccc(F)cc3F)ccc21 | True
C#Cc1nc(/C=C/C(=O)NO)cs1 | False
CCCc1cc2cc(-n3nc(CC)c4c3CC(C)(C)CC4=O)cc(NC3CCC(O)CC3)c2c(=O)[nH]1 (stereo not drawn) | False
Cn1cc(-c2nc(N)nnc2-c2c[nH]c3ccc(Br)cc23)c2cc(F)ccc21 | False
CC(=O)c1c([Si](C)(C)C)c2cc(C#N)ccn2c1C(=O)c1ccc(Br)cc1 | False
Brc1ccc(-c2cc(-c3ccc4c(c3)OCCO4)n[nH]2)s1 | False
CC1=C(C)C(=O)C(Nc2cccc(C)c2)=C(Br)C1=O | False
O=C(/C=C/c1cc(Cl)ccc1Cl)Nc1ncc(Cc2ccc(Cl)cc2)s1 | False
Cc1ccc(N2CCN(C3=C(Cl)C(=O)c4ncccc4C3=O)CC2)cc1 | False

* * *

- System: HCT-15 colon
- method description: NCI-60 one-dose screen, 48 h (100 = growth as untreated, 0 = no growth, -100 = all killed)
- measurement conditions: 10 µM unless noted
About 83,000 compounds went through this panel and 20% of them were active in at least one assay; those are over-represented in the sample as a whole.

compound string | growth [%]
COc1ccc2[nH]cc(-c3nc(N)nnc3-c3cn(C)c4ccc(Br)cc34)c2c1 | 22
C#Cc1cc(OC)c(C(=O)Nc2ccc(F)cc2C(=O)Nc2cccc(S(=O)(=O)C(F)(F)F)c2)cn1 | -8.48
Cn1c2nc3ccccc3c-2cc2ccccc21 | 25
CN(C)c1ccc(-c2cc(-c3c[nH]c4ccccc34)nc(N)c2C#N)cc1 | 11.9
COc1cc(C(=O)c2cc(C(C)=O)c3ccc(C)cn23)cc(OC)c1OC | 18.9
O=C(Nc1ccc(N2CCOCC2)cc1)Nc1ccc2c(ccn2C(=O)c2cccc(F)c2)c1 | 78.6
O=c1c2cc(-c3ccc(F)cc3F)ccc2n(Nc2ccccc2)c(=O)n1-c1cccc(C(F)(F)F)c1 | 11.4
COc1cc(NC(=O)Nc2cccc(-c3cc(=O)c4c(OC)c(OC)c(OC)cc4o3)c2)cc(OC)c1OC | 32.7
CN1CCN(c2ccc(Nc3nc(NCCCNS(=O)(=O)c4ccccc4)c4sccc4n3)cc2)CC1 | 27.2
